# SUBJECT_OF_TEST: TEAD1 (Homo sapiens)
# Sequence (P28347 whole entry, species assumed): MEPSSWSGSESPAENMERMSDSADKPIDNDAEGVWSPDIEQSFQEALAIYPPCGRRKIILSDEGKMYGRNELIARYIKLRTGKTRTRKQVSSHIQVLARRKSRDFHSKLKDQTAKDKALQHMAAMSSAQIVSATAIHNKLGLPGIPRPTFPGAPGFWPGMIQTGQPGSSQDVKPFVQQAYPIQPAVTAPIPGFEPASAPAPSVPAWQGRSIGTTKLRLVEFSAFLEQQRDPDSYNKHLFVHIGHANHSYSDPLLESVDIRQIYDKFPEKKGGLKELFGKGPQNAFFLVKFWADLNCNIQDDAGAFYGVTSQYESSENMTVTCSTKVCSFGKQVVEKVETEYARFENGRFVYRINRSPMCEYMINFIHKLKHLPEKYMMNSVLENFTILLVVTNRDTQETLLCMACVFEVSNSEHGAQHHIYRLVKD
REPORTED_ENDPOINT: IC50 (nM)

C=CC(=O)NCc1cc(-c2ccc(OC(F)(F)F)cc2)c2ncn(C)c2c1C#C[C@H](O)CO | 16
C=CC(=O)NCc1cc(-c2ccc(OC(F)(F)F)cc2F)c2ncn(C)c2c1C#N | 26

1. C=CC(=O)NC1CN(c2nc(-c3ccc(OC(F)(F)F)cc3)c3ncn(C)c3n2)C1
2. C=CC(=O)N(C)CCc1cc(-c2ccc(OC(F)(F)F)cc2)c2ncn(C)c2c1C#N
3. C=CC(=O)NCc1nc(-c2ccc(OC(F)(F)F)cc2)c2ncn(C)c2c1CO
Arrange these compounds by their IC50, starting with the largest number. List the labels, following the order given in the request. 2, 3, 1
(2: 94 nM, 3: 58 nM, 1: 26 nM)

###

# SUBJECT_OF_TEST: UniProt Q99594
# Sequence (Q99594 whole entry, species assumed): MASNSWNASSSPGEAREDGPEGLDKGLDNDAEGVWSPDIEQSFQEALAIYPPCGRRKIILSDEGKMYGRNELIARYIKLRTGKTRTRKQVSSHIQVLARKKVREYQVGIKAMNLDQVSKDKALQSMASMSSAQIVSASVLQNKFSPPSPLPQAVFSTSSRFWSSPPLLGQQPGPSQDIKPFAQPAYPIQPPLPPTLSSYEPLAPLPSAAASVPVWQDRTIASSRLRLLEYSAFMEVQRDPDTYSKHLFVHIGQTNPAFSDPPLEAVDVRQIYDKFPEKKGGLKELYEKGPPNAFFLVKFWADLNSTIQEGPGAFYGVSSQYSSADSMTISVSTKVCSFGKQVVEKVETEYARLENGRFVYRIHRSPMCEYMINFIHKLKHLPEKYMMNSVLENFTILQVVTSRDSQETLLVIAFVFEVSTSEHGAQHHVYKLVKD
REPORTED_ENDPOINT: IC50 (nM)

Record excerpt, results attached:
C=CC(=O)NCc1cc(-c2ccc(OC(F)(F)F)cc2)c2nccn2c1 | 230
O=C(NCc1cc(-c2ccc(OC(F)(F)F)cc2)c2nccnc2c1[C@@H](O)CO)C1=CCC1 | 220
C=CC(=O)NCc1nc(-c2ccc(OC(F)(F)F)cc2)c2nc(C)sc2n1 | 790
C=CC(=O)NCc1cc(-c2ccc(OC(F)(F)F)cc2)c2nccnc2c1[C@@H](O)CO | 390

1. C=CC(=O)N(C)Cc1cc(-c2ccc(OC(F)(F)F)cc2)c2c(c1C#N)CCO2
2. CN(Cc1cc(-c2ccc(OC(F)(F)F)cc2)c2ncn(C)c2c1CO)C(=O)/C=C/CO
3. C=CC(=O)NCc1cc(-c2ccc(OC(F)(F)F)cc2)c2ncn(C)c2c1C#C[C@@H](O)CO
4. C=C(F)C(=O)NCc1cc(-c2ccc(OC(F)(F)F)cc2)c2c(c1C#N)CCO2
Put these in order: smallest IC50 first, largest last. List the labels, following the order given in the request. 1, 3, 4, 2
(1: 9.5 nM, 3: 160 nM, 4: 420 nM, 2: 700 nM)

###

# SUBJECT_OF_TEST: UniProtKB Q15562
# Sequence (Q15562 whole entry, species assumed): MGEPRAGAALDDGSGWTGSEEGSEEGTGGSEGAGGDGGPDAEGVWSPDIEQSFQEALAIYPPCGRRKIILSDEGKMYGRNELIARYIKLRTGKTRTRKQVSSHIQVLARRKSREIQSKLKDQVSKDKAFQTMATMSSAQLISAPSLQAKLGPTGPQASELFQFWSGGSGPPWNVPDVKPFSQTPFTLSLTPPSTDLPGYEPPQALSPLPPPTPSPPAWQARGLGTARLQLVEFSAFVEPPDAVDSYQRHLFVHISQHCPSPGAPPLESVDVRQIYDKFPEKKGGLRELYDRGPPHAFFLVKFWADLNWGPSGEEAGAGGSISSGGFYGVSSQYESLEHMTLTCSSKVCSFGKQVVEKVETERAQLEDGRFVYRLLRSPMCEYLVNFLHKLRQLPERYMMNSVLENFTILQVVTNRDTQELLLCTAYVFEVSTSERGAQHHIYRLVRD
# EXPERIMENT_SUMMARY: biochemical
REPORTED_ENDPOINT: IC50 (nM)

C=C(NC(=O)c1cc(-c2ccc(OC(F)(F)F)cc2)c2ncn(C)c2c1)C(=O)OC | 98
C=CC(=O)NCc1nc(-c2ccc(OC(F)(F)F)cc2)c2ncn(C)c2n1 | 100

P. C=C(F)C(=O)N1CC(c2nc(-c3ccc(OC(F)(F)F)cc3)c3ncn(C(F)F)c3n2)C1
Q. C=CC(=O)N(C)Cc1cc(-c2ccc(OC(F)(F)F)cc2)c2ncoc2c1[C@@H](O)CO (single isomer, unassigned)
Hello, I am sorting some records. Could you say if P or Q has the smaller IC50 value? Write the label of whichever entry you select. Q
(Q: 76 nM, P: 150 nM)
